Experiment: Solubility in gastric fluid (indirect weighing and UV dosage)
Assay type: physicochemical
Details: gastric fluid (FU; fluid mimicking the gastric fluid), simulated gastric fluid, thermodynamic from solid, gastric fluid pH 1.2, FU
TEST_READOUT: solubility (µg/mL)
Please give a number only; it is taken to be in µg/mL.

Input: Please look up its solubility: Oc1ccc(/C=C/c2cc(O)cc(O)c2)cc1 [resveratrol, trans-resveratrol]
Output: 44
